TARGET OR SYSTEM: CAv1.2 (Homo sapiens, UniProt Q13936)
Sequence (Q13936 whole entry): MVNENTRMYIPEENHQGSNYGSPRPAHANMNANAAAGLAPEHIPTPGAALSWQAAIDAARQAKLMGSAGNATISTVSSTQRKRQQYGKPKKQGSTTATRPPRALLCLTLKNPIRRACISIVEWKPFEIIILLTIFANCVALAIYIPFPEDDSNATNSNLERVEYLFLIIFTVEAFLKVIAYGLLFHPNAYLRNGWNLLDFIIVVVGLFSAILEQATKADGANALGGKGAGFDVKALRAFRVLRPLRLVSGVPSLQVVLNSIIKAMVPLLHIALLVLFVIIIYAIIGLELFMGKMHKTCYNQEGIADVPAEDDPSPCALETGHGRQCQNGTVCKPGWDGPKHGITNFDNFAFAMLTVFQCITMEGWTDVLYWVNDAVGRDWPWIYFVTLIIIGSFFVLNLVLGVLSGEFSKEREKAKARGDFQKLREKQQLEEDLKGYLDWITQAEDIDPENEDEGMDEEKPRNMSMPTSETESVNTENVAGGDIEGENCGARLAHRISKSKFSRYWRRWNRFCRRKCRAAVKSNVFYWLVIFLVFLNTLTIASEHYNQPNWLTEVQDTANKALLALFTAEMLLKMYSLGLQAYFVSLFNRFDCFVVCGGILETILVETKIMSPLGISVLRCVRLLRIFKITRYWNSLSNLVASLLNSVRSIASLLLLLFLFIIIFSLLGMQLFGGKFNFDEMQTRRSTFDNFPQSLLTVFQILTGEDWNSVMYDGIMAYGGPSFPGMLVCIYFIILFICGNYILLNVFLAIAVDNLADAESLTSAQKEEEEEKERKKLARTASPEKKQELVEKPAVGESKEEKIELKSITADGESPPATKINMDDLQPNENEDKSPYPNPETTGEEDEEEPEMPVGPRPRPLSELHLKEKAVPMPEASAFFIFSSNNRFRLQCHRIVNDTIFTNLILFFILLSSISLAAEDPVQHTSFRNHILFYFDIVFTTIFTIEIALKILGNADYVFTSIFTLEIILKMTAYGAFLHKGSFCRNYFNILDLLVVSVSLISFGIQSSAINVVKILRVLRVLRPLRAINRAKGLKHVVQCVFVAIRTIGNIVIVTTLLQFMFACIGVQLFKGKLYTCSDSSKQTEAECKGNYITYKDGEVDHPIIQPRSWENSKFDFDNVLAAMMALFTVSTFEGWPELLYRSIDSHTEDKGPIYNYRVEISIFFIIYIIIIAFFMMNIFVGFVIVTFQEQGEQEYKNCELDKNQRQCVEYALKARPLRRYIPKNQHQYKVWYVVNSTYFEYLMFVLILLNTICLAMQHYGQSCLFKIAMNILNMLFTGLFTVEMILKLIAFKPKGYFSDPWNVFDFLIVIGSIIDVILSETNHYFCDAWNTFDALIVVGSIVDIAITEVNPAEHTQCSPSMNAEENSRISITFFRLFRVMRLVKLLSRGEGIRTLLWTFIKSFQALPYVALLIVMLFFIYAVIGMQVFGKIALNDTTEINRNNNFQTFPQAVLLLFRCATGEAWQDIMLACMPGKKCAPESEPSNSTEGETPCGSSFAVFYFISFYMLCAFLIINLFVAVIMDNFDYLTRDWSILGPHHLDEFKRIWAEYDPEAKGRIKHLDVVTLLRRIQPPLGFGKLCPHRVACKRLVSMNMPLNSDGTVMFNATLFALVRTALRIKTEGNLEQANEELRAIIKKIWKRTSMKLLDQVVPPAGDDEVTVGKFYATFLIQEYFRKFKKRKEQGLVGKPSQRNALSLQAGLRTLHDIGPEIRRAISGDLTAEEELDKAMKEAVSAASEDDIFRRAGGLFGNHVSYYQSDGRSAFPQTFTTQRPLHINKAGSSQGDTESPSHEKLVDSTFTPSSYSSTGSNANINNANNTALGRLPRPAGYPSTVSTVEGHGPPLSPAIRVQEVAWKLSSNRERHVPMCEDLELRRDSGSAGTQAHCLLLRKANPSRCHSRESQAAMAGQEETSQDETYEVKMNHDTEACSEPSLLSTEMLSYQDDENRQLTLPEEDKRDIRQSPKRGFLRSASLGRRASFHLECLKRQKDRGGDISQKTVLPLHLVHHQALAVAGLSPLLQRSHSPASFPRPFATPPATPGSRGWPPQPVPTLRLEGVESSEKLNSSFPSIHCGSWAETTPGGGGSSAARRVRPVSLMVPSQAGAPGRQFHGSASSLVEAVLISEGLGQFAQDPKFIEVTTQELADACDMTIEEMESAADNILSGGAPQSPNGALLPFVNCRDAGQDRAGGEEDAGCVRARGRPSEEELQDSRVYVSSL
Sequence (P54289 25-1103 partner): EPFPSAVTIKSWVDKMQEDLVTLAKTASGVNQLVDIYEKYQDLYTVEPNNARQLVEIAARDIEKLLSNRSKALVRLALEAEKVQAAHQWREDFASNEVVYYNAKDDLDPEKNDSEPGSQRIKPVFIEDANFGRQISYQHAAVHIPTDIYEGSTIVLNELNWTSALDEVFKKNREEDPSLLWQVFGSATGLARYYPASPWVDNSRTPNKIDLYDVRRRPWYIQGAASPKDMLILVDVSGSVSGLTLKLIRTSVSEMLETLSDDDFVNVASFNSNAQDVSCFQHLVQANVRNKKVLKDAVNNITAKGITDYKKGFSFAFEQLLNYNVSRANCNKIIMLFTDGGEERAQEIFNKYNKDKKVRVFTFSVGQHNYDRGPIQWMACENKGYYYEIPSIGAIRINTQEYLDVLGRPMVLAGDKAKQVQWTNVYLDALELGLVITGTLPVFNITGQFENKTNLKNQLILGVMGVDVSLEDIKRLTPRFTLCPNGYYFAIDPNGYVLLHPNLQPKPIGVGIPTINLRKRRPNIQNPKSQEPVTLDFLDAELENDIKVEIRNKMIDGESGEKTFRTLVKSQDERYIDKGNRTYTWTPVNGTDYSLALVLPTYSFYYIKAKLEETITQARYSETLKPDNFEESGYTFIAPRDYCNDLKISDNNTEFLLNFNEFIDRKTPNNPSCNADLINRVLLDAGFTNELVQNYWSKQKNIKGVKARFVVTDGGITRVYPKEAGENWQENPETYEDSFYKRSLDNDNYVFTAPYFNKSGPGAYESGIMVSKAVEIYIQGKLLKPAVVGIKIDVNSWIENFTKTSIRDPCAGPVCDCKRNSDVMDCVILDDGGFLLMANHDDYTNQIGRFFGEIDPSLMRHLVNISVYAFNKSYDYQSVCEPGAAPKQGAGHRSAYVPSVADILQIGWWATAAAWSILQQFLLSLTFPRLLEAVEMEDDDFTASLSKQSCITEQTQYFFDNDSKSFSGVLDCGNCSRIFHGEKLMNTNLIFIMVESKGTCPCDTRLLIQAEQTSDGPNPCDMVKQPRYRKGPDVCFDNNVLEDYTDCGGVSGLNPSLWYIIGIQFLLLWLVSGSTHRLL
Sequence (Q08289 whole entry partner): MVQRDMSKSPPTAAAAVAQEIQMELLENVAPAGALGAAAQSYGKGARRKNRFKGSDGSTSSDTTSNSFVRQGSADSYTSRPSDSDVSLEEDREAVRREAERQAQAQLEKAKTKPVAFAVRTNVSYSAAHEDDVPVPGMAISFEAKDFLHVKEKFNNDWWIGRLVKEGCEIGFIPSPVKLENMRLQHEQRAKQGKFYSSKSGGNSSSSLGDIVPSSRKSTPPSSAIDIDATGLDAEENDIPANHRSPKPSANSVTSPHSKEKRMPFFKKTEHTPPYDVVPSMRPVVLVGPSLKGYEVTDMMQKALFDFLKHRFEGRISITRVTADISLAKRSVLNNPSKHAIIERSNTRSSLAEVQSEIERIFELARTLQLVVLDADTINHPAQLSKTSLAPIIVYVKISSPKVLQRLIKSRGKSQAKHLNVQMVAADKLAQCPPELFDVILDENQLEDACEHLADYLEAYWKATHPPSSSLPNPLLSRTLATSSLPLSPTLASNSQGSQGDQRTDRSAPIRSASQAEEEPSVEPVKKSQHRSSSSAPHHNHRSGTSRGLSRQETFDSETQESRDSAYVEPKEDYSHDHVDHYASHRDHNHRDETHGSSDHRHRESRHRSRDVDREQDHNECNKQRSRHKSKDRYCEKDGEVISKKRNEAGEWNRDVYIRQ
METHOD NOTES: FLIPR data, CAv1.2 channel blocking (Table 6)
Type: cell-based
TEST SETTINGS: inactivated state, read-out: CAv1.2 IC50 Inact.
YES if IC50 is below 3 µM. NO if not; exact matches included in NO.

smi=CC(C)(C[C@H]1C[C@@H](NC(=O)CC2(N)CCCCC2)C1)S(=O)(=O)c1cccc(C(F)(F)F)c1 class=NO
smi=CC(C)([C@H]1C[C@@H](NC(=O)c2cc(C(F)(F)F)n[nH]2)C1)S(=O)(=O)c1cc(F)cc(C(F)(F)F)c1 class=NO
smi=CC(C)([C@H]1C[C@@H](CNC(=O)c2ccc(F)c(Cl)c2)C1)S(=O)(=O)c1cccc(C(F)(F)F)c1 class=YES
smi=CC(C)(C[C@H]1C[C@@H](NC(=O)c2ccc(C(F)(F)F)nc2)C1)S(=O)(=O)c1cccc(C(F)(F)F)c1 class=NO
smi=CC(C)([C@H]1C[C@H](NC(=O)c2ccc(F)c(Cl)c2)C1)S(=O)(=O)c1cc(F)cc(C(F)(F)F)c1 class=YES
smi=CC(C)([C@H]1C[C@H](NC(=O)c2cncc(C(F)(F)F)c2)C1)S(=O)(=O)c1cccc(C(F)(F)F)c1 class=NO
